target: ORL1 (Homo sapiens, UniProt P41146); assay: Calcium flux (FLIPR) in carbachol-sensitized HEK-293 cells expressing ORL-1 receptor; assay type: cell-based; design: expressed in transfected cells; host or cells: HEK-293 cells expressing ORL-1 receptor; settings: HEK-293 cells expressing ORL-1, pretreated with 100 μM carbachol; read-out: EC50 (calcium release)
Sequence (P41146 whole entry): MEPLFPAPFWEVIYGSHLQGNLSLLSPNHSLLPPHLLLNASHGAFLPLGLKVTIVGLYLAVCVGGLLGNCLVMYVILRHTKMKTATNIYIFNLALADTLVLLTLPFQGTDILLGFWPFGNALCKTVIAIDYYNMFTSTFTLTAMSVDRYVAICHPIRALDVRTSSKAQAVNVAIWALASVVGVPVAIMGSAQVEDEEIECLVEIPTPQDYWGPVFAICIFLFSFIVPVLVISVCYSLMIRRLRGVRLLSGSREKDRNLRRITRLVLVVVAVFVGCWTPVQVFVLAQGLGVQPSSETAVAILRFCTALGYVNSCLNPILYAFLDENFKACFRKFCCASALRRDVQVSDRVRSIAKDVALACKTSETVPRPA
No end group written: not given here.
experimental-endpoint: EC50 (nM)
Please respond with the number in nM and leave the unit unwritten.

Form: sequence = FGGFTGARKSAAKLANQ [Peptide R12A] ; EC50 = 1.3

Just so you know, measured EC50 for FGGFTGAKKSARKLANQ [Peptide R8K] came out at 64

Memo: FGGFTGARKSARKAANQ [Peptide L14A] , reported EC50: 7

The reported EC50 of the sequence FGAFTGARKSARKLANQ [Peptide G3A] was 13

For this sequence ( FGGFTGARKSGRKLANQ [Peptide A11G] ), measured EC50 is 11

Measured EC50, FGGATGARKSARKLANQ [Peptide F4A] : 3880

In plain terms, FGGFTGLRKSARKLANQ [Peptide A7L] has a documented EC50 of 13

Memo: FGGFTGARASARKLANQ [Peptide K9A] , reported EC50: 2.8

// field: EC50; key: FGGFTAARKSARKLANQ [Peptide G6A] ; value = 39

In plain terms, FGGFSGARKSARKLANQ [Peptide T5S] has a documented EC50 of 27

The measured EC50 associated with AGGFTGARKSARKLANQ [Peptide F1A] reads 1440

So, FGGFAGARKSARKLANQ [Peptide T5A] ? Its EC50 was 159

The values you see were collected from patent US20050266575A1.
